Kd: recorded values
biological target: T1, recombinant human PD-L1 expressed with a C-terminal myc-myc-hexahistidine tag (hPD-L1-MMH) (human); test: SPR, captured mAb, 25 C
T1 construct: Monomeric PD-L1 reagent; also called hPD-L1-MMH Monomer
T1 sequence (chain, as listed by the source limits assumed): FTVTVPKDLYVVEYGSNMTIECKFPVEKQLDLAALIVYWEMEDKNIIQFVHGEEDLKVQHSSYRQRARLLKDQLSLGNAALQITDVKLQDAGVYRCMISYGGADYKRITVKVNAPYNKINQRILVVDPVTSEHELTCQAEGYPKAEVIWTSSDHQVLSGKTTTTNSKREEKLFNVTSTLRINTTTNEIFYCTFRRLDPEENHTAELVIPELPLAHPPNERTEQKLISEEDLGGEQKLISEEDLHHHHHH

Reference set, count: 3
H1H9336P (antibody, human IgG1, V domains shown) VH: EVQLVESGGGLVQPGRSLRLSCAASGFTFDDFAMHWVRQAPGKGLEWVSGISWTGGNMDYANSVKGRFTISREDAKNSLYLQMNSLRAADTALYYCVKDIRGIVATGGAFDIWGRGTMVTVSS VL: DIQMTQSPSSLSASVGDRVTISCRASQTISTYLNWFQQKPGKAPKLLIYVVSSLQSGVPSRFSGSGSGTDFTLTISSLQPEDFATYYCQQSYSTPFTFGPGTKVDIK : 0.492 nM
H2aM8314N (antibody, mouse IgG2, V domains shown, also called H2M8314N) VH: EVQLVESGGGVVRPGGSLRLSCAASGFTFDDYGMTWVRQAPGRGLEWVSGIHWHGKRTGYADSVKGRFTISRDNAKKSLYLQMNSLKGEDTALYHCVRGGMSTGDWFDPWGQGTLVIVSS VL: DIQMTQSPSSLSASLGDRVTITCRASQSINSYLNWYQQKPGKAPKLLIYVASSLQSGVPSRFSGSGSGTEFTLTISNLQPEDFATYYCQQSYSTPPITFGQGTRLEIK : 0.0558 nM
H2aM8323N (antibody, mouse IgG2, V domains shown, also called H2M8323N) VH: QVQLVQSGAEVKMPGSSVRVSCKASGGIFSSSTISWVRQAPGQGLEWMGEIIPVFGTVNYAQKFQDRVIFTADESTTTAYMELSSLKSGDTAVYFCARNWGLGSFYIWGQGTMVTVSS VL: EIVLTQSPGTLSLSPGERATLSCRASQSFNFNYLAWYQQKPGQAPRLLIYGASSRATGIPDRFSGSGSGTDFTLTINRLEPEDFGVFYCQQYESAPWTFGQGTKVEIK : 0.238 nM

Suppose we examine the binder H2aM8317N (antibody, mouse IgG2, V domains shown, also called H2M8317N) VH: EVQLVESGGGLVQPGGSLRLSCAASGFTVGSNYMNWVRQAPGKGLEWVSVIYSGGSTYYADSVKGRFTISRLTSKNTLYLQMSSLRPEDTAVYYCARGIRGLDVWGQGTTVTVSS VL: DIQMTQSPSSLSASVGDRVTITCRASQTINIYLNWYQQKPGRAPRLLIYAASSLQSGVPSRFSGSGSGTDFTLTISSLQPEDFATYYCHQSYSTPPITFGQGTRLEIK ; what Kd value has been reported?
421 nM
